# test.protocol: Human HepG2 cell viability assay in 384 well format
# Type: toxicity, cell-based
# Set-up: dose 125 nL, time 70.5 hour; concentration not given beside the values
# protocol.conditions: HepG2 cells, read-out: Inhibition
recorded.metric: cytotoxicity at 70.5 h (%)
Kindly provide the numeric value in % only, without the unit symbol.

### Prompt Name the reported cytotoxicity at 70.5 h value associated with the compound "c1ccc(CCNc2ncnc3c2CCN(Cc2c[nH]cn2)CC3)cc1"
### Response -0.00958

### Prompt Further, for "CCS(=O)(=O)N1CCC2(CCN(Cc3cccc(OC)c3)CC2)CC1" ?
### Response -2.06

### Prompt Further, for COC1CCN(C(=O)C2CCCC2)CC(=O)N(C)c2ccccc21 (centres undefined) ?
### Response 22.2

### Prompt Further, for "CC(C)(CNc1c(C#N)cnc2ccc(Cl)cc12)C(N)=O" ?
### Response -17.7

### Prompt Further, for CC(=O)N1CCCC1c1nccnc1NCc1cccnc1 (centres undefined) ?
### Response -8.19

### Prompt Further, for "CCOc1ccccc1C(=O)NCCc1ccoc1" ?
### Response -13.5

### Prompt Further, for "CS(=O)(=O)NCCC(=O)N1Cc2cnc(-c3ccccc3)nc2C1" ?
### Response 2.41

### Prompt Further, for "CC(=O)N1CC[C@@H]2O[C@H](C(=O)Nc3nc(C)cs3)C[C@@H]21" ?
### Response -3.43

### Prompt Further, for "CN(CCCc1nccn1C)C(=O)C1CCN(C(=O)C2CCCC2)CC1" ?
### Response 4.09

### Prompt Further, for "c1ccc(COC[C@H]2CC[C@H]3[C@H](CCN3Cc3cccnc3)O2)nc1" ?
### Response 9.23

### Prompt Further, for CNC(=O)C1CCCCN1C(=O)C1CCN(S(C)(=O)=O)CC1 (centres undefined) ?
### Response -11.7

====

# test.protocol: Human HepG2 cell viability assay in 384 well format
# Format: toxicity, cell-based
# Set-up: dose 125 nL, time 70.5 hour; concentration not given beside the values
# protocol.conditions: HepG2 cells, read-out: Inhibition
recorded.metric: cytotoxicity at 70.5 h

Please review the entries below; each comes with its answer.
CC(C)N(Cc1nc2c(cnn2C)c(=O)[nH]1)c1ccccc1 = 3.46%
c1cc(CNCc2ccnc(N3CCOCC3)c2)c2c(c1)OCCCO2 = -9.7%
Cc1c(CCC(=O)N2CCOC(c3cnccn3)C2)cnn1C (centres undefined) = -2.28%

### Prompt Name the reported cytotoxicity at 70.5 h value associated with the molecule "NC(=O)c1ccc(NC(=O)Cn2cc(I)cn2)cc1"
### Response -13.1%

### Prompt Further, for "CN(Cc1ccc2c(c1)OCCO2)C(=O)Cn1cccnc1=O" ?
### Response 3.46%

### Prompt Further, for "CCc1noc(CN(CC)Cc2cc3ccc(F)cc3[nH]c2=O)n1" ?
### Response 9.1%

### Prompt Further, for "Cc1cc(NCCN2CCNC2=O)nc2cc3c(cc12)CCC3" ?
### Response -4.19%

====

# test.protocol: Human HepG2 cell viability assay in 384 well format
# Type: toxicity, cell-based
# Parameters: dose 125 nL, time 70.5 hour; concentration not given beside the values
# protocol.conditions: HepG2 cells, read-out: Inhibition
Attribute: cytotoxicity at 70.5 h
Kindly provide the numeric value in % only, without the unit symbol.

CC(=O)Nc1ccc([C@@H](O)[C@H]2COCC(=O)N2CC(C)C)cc1 = 1.58
Cc1noc(C)c1C(=O)NCCc1cccs1 = 0.104
CCN(C)Cc1cccc(CNC(=O)NCCc2ccccn2)c1 = -3.19
Cn1cnnc1C1CCCN(C(=O)c2cc(Cl)c(Cl)n2C)C1 (configuration not stated) = -8.15
Cc1ccc(C(=O)NCCCS(=O)(=O)c2ccccc2)c(=O)[nH]1 = -4.85

### Prompt Name the reported cytotoxicity at 70.5 h value associated with the molecule "O=c1[nH]ncc(NCCOc2cccc(Br)c2)c1Cl"
### Response -5.68

### Prompt Further, for CCN(C(=O)C1CCC1)C(c1cccnc1)c1ccc2c(c1)CCO2 (configuration not stated) ?
### Response 38.8

### Prompt Further, for "Cc1csc(N2CCC(CCN3CCCC3=O)CC2)n1" ?
### Response -14.3

### Prompt Further, for "CCc1nc(NCCn2cccn2)c2c(n1)c(C)nn2C" ?
### Response -7.14

====

# test.protocol: Human HepG2 cell viability assay in 384 well format
# Type: toxicity, cell-based
# Parameters: dose 125 nL, time 70.5 hour; concentration not given beside the values
# protocol.conditions: HepG2 cells, read-out: Inhibition
recorded.metric: cytotoxicity at 70.5 h (%)
Kindly provide the numeric value in % only, without the unit symbol.

COCc1ncn2c1CN(C(=O)c1ccco1)CC2 = 1.28
COc1ccc(N2Cc3nc(=O)n(C(C)C)n3C2=O)cc1 = -15.6
COc1cccc(CNCc2c(C(C)C)nn(C)c2N(C)C)c1OC = -3.04
COc1ccc(NC(C)c2ccc(C#N)cc2)cc1N1CCCC1=O (centres undefined) = 1.58
CCc1nc(C)c(CNC(=O)CCCN2CCCCC2)s1 = -1.08

Here's the next entry for you.
### Prompt Name the reported cytotoxicity at 70.5 h value associated with the molecule "CC(C)OCc1ncn2c1CN(Cc1nccs1)CCC2"
### Response -6.03

====

# test.protocol: Human HepG2 cell viability assay in 384 well format
# Format: toxicity, cell-based
# Parameters: dose 125 nL, time 70.5 hour; concentration not given beside the values
# protocol.conditions: HepG2 cells, read-out: Inhibition
Attribute: cytotoxicity at 70.5 h
Kindly provide the numeric value in % only, without the unit symbol.

O=C(NCc1cn2c(n1)CN(Cc1cccc(F)c1)CC2)C1CCC1 = -3.08
CC(C)[C@@H]1CN(S(=O)(=O)Cc2ccccc2)C[C@H]1C(=O)O = -3.52
N[C@@H]1CC[C@H](C(=O)NCc2ccc3nonc3c2)C1 = -13.2

### Prompt Name the reported cytotoxicity at 70.5 h value associated with the molecule CC(C)c1ccc(OCCNC(=O)CN2CCN(C)CC2C)cc1 (stereo unspecified)
### Response 1.16

### Prompt Further, for "COCc1noc(-c2nn(-c3ccccc3F)c3c2CCC3)n1" ?
### Response -6.39

### Prompt Further, for "Cc1nc2c(c(C)c1CC(=O)NCc1cccs1)c(=O)[nH]n2C" ?
### Response -1.43

====

# test.protocol: Human HepG2 cell viability assay in 384 well format
# Assay type: toxicity, cell-based
# Design: dose 125 nL, time 70.5 hour; concentration not given beside the values
# protocol.conditions: HepG2 cells, read-out: Inhibition
recorded.metric: cytotoxicity at 70.5 h (%)
Kindly provide the numeric value in % only, without the unit symbol.

Please review the entries below; each comes with its answer.
Cc1cc(C)c(Cn2cncn2)cc1CN1CCC(CN)C1 (stereo not given) = -0.164
Fc1ccc(-c2cnc(C3CCCN3)cn2)cc1 (stereo not given) = -2.54
CCc1csc(NC(=O)Nc2c(C)n[nH]c2C)n1 = -4.31
CC(C)N1CCC(Nc2ccn(Cc3ccccn3)n2)C1=O (stereo not given) = 1.71
CC(O)CC(C)(C)CNC(=O)Nc1cnn(-c2ccccc2F)c1 (stereo not given) = -4.35
COc1cccc(CNc2nc(O)cc(C3CC(=O)N(C)C3)n2)c1 (stereo not given) = -11.6
CC(C)N1CCC(CC(=O)NC(C(=O)O)c2ccc(F)cc2)CC1 (stereo not given) = -10.8
CCOc1ccc(OCCN2CCC(N3CCNC3=O)CC2)cc1 = 19
COc1ccc(OC)c(-n2cnnc2CCN)c1 = -4.57
O=C(Cc1n[nH]c2ccccc12)N1CCCC1Cn1cccn1 (stereo not given) = 0.964

Here's the next entry for you.
### Prompt Name the reported cytotoxicity at 70.5 h value associated with the compound "Cc1nc(CN2C[C@@H]3CN(C(=O)c4cnccn4)C[C@@H]3C2=O)cs1"
### Response -10.8

====

Attribute: cytotoxicity at 70.5 h
# test.protocol: Human HepG2 cell viability assay in 384 well format
# Format: toxicity, cell-based
# Parameters: dose 125 nL, time 70.5 hour; concentration not given beside the values
# protocol.conditions: HepG2 cells, read-out: Inhibition
Number first, unit second.

CN1C(=O)C(C)(C)COc2ccc(NS(=O)(=O)Cc3ccccc3)cc21 = 5.22%
O=C(COCc1nc(-c2ccncc2)no1)N1CCCCC1 = -6.97%
O=C1CCC(=O)N1CCN1CCN(c2cc(F)ccc2F)CC1 = -3.59%
COc1ccc([C@@H]2C[C@H](NC(C)=O)C[C@H](Cc3ccccc3)O2)cn1 = -6.79%
O=C(CN1CCOC(CNc2cccnn2)C1)NCc1cccs1 (centres undefined) = -0.0167%
CN(C)C[C@@H]1CCC[C@@H]2CN(c3ncccn3)C[C@@H]21 = -13%

### Prompt Name the reported cytotoxicity at 70.5 h value associated with the compound CSc1ccccc1CCC1CCS(=O)(=O)C1 (centres undefined)
### Response -1.45%
